- system: ScPex13
- assaySummary: SPOT peptide array binding signal intensity (averaged, normalized) (arbitrary units (background-subtracted, floor 0; scale differs between SH3 domains)); higher = stronger binding of the SH3 domain to the peptide
readoutType: SPOT peptide array binding signal intensity

> print(dat)
             binder  resultmodifier  measuredresult
 1  AAAPKHAPPPVPNET               ≤               0
 2  GDHPKGPPPPPPPDE               ≤               0
 3  FYNRTAFQLPGDARV               ≤               0
 4  SKSRLLIELPEGFFT               ≤               0
 5  LKPPIGRPPKFPKSP               ≤               0
 6  QRKSLRRPTLSKPAV               ≤               0
 7  NPTKSPPPPPSPSTM               =              80
 8  RKRAPTPPAPSRSEK               =            30.5
 9  TKIRRRPQQPLTDFT               =            6.75
10  SAPDIPPRSPNRNAH               =             130
11  QPQRTAPKPPISAPR               =             131
12  NNFYRPLLRSVLVLL               =            0.25
13  NMLKKKPLKKPLKRF               =             194
14  DDEDVPPQLPTRTKS               =            1570
15  ISRRRLPVIMHRLKM               =              18

Values from the supplement of paper PMC4466140
